- ASSAY TARGET: T1, whirlin-PDZ2 (aa residues 272-368) (mouse, UniProt Q80VW5-1 272-368)
- T1 construct: extra 7 aa at the N-terminus of all recombinant proteins of the study; whirlin, residues 272-368: PDZ2 domain; source: E. coli BL21 (DE3) codonPlus-RIPL, purified (Glutathione Sepharose 4B, GST removed by TEV proteinase, SEC)
- T1 sequence: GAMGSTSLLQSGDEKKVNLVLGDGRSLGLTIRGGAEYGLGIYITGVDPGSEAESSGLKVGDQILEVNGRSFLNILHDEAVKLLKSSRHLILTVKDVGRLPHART
- ASSAY REMARKS: SPR; ProteOn XPR 36; N-terminally biotinylated peptides captured on a Neutravidin NLC sensor chip, whirlin fragments flowed as analytes at 20 μL/min for 2 min; 250 mM NaCl, 50 mM Tris pH 7.5, 0.5 mM TCEP; steady-state fit Req = (Rmax*C)/(Kd+C); mean of three experiments; Figure 4B shows the responses at 10 μM
- CONDITION: both partners purified
pKd: −log10 of the molar value. No end group written: not given here. *: point of attachment. Biotin = O=C1N[C@H]2[C@H](CS[C@H]2CCCCC(=O)*)N1; TTDS = trioxatridecan-succinamic acid spacer
Measured pKd, listed per entry for reference.
PROPERTY LABEL: pKd

{Biotin-TTDS}-VIMESPLEITEL (C-terminal residues of cadherin-23, including the PBM; source: synthetic peptide (Eurogentec); not shown: biotin, N-terminal, kept) [CDH23 C-terminal peptide (biotin-TTDS-VIMESPLEITEL)] :: < 3.00
{Biotin-TTDS}-GIDVQPHSQSTSL (C-terminal 13 aa of protocadherin-15 isoform CD1, including the PBM; source: synthetic peptide (Eurogentec); not shown: biotin, N-terminal, kept) [PCDH15-CD1 C-terminal peptide (biotin-TTDS-GIDVQPHSQSTSL)] :: < 3.00
{Biotin-TTDS}-MGPWNSLHIPMTKL (C-terminal 14 aa of protocadherin-15 isoform CD3, including the PBM; source: synthetic peptide (Eurogentec); not shown: biotin, N-terminal, kept) [PCDH15-CD3 C-terminal peptide (biotin-TTDS-MGPWNSLHIPMTKL)] :: 3.34
{Biotin-TTDS}-GANSEQYNTAL (C-terminal 11 aa of protocadherin-15 isoform CD2, including the PBM; source: synthetic peptide (Eurogentec); not shown: biotin, N-terminal, kept) [PCDH15-CD2 C-terminal peptide (biotin-TTDS-GANSEQYNTAL)] :: < 3.00
